src = patent US11504349B2

The reader will find reported inhibition at 50 µM values listed item by item below.
molecular target: TNF (Homo sapiens, UniProt P01375); test: TNF-neutralization bioassay: TNF-induced cell death of LM cells (MTT); assay type: cell-based; conditions: compound 50 μM, TNF 20 ng/ml, actinomycin D, LM cells, 24 hours
Sequence (P01375 77-233 limits assumed): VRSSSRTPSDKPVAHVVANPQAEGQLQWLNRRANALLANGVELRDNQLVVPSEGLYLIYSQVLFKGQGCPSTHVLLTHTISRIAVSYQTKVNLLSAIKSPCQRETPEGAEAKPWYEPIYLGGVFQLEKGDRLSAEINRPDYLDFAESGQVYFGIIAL
Write the number in % without appending the unit.

Here's what some known entries look like.
Cc1ccc2c(=O)c(C(=O)O)c(-c3cc(F)cc(F)c3)oc2c1 | 29
O=C(O)c1c(-c2ccc(Cl)cc2)oc2ccccc2c1=O | 42
Cc1ccc2oc(-c3cccc(F)c3)c(C(=O)O)c(=O)c2c1 | 19.4
Cc1cccc2c(=O)c(C(=O)O)c(-c3cccc(F)c3)oc12 | 37.2
Cc1ccc2oc(-c3cccs3)c(C(=O)O)c(=O)c2c1 | 20.7
COc1ccc(-c2oc3cc(Cl)ccc3c(=O)c2C(=O)O)cc1OC | 24.5

Ask: State, for TNF (Homo sapiens, UniProt P01375), measured inhibition at 50 µM of the compound listed here: COc1cccc2c(=O)c(C(=O)O)c(-c3ccc(Cl)cc3)oc12
Reply: 79

Ask: State, for TNF (Homo sapiens, UniProt P01375), measured inhibition at 50 µM of the compound listed here: O=C(O)c1c(-c2ccc(F)c(F)c2)oc2ccc(Cl)cc2c1=O
Reply: 100

Ask: State, for TNF (Homo sapiens, UniProt P01375), measured inhibition at 50 µM of the compound listed here: COc1cccc2c(=O)c(C(=O)O)c(-c3cccs3)oc12
Reply: 62.5

Ask: State, for TNF (Homo sapiens, UniProt P01375), measured inhibition at 50 µM of the compound listed here: COc1ccc2c(=O)c(C(=O)O)c(-c3cccs3)oc2c1
Reply: 55.9

Ask: State, for TNF (Homo sapiens, UniProt P01375), measured inhibition at 50 µM of the compound listed here: COc1ccc2oc(-c3cccs3)c(C(=O)O)c(=O)c2c1
Reply: 38.8

Ask: State, for TNF (Homo sapiens, UniProt P01375), measured inhibition at 50 µM of the compound listed here: O=C(O)c1c(-c2cccc(F)c2)oc2cc(Cl)ccc2c1=O
Reply: 93.2

* * *

test.readout: melting point

Here's what some known entries look like.
O=C(O)c1c(-c2cccc(F)c2)oc2ccc(Cl)cc2c1=O | 216 to 217 °C
Cc1cccc2c(=O)c(C(=O)O)c(-c3cc(F)ccc3F)oc12 | 170 to 172 °C
Cc1ccc2c(=O)c(C(=O)O)c(-c3ccc(F)c(F)c3)oc2c1 | 202 to 204 °C

Ask: Please list melting point recorded for the molecule COc1ccc(-c2oc3ccc(Br)cc3c(=O)c2C(=O)O)cc1OC
Reply: 242 to 243 °C

Ask: Please list melting point recorded for the molecule O=C(O)c1c(-c2cccs2)oc2ccc(Br)cc2c1=O
Reply: 210 to 212 °C

* * *

test.readout: melting point

Cc1ccc2oc(-c3cccc(F)c3)c(C(=O)O)c(=O)c2c1 [Example 43] | 214 to 215 °C
COc1ccc2c(=O)c(C(=O)O)c(-c3ccccc3Cl)oc2c1 [Example 10] | 130 to 132 °C

Ask: Please list melting point recorded for the compound O=C(O)c1c(-c2ccco2)oc2ccc(Br)cc2c1=O [Example 24]
Reply: 209 to 211 °C

* * *

The reader will find reported IC50 values listed item by item below.
target: UniProt:P01375; assay: TNF-neutralization bioassay: TNF-induced cell death of LM cells (MTT); details: inhibition of TNF-induced LM cell death
Write the number in µM without appending the unit.

Here's what some known entries look like.
O=C(O)c1c(-c2cccc(F)c2)oc2ccc(Cl)cc2c1=O [Example 45] | 18.5
O=C(O)c1c(-c2cccc(F)c2F)oc2ccc(Cl)cc2c1=O [Example 56] | 16.4
O=C(O)c1c(-c2cccc(F)c2)oc2ccccc2c1=O [Example 16] | 16.8

Next, consider the following molecule.
Ask: Please list IC50 recorded for the molecule O=C(O)c1c(-c2ccc(Cl)cc2)oc2ccc(Cl)cc2c1=O [Example 71]
Reply: 3.3

* * *

The reader will find reported melting point values listed item by item below.

Here's what some known entries look like.
COc1ccc(-c2oc3c(C)cccc3c(=O)c2C(=O)O)cc1OC | 210 to 212 °C
COc1ccc2c(=O)c(C(=O)O)c(-c3ccco3)oc2c1 | 217 to 219 °C
Cc1ccc2c(=O)c(C(=O)O)c(-c3cccc(F)c3F)oc2c1 | 155 to 156 °C
Cc1ccc2c(=O)c(C(=O)O)c(-c3ccc(Cl)cc3)oc2c1 | 220 to 222 °C
O=C(O)c1c(-c2cccc(F)c2)oc2ccccc2c1=O | 193 to 196 °C
COc1cccc2c(=O)c(C(=O)O)c(-c3cccc(C)c3)oc12 | 192 to 195 °C

Ask: Please list melting point recorded for the compound Cc1ccc2c(=O)c(C(=O)O)c(-c3ccco3)oc2c1
Reply: 217 to 218 °C

Ask: Please list melting point recorded for the compound Cc1ccc2oc(-c3cc(F)cc(F)c3)c(C(=O)O)c(=O)c2c1
Reply: 238 to 240 °C

Ask: Please list melting point recorded for the compound Cc1cccc(-c2oc3c(C)cccc3c(=O)c2C(=O)O)c1
Reply: 209 to 211 °C

Ask: Please list melting point recorded for the compound O=C(O)c1c(-c2cc(F)cc(F)c2)oc2ccc(Cl)cc2c1=O
Reply: 207 to 209 °C

Ask: Please list melting point recorded for the compound Cc1ccc2oc(-c3cc(F)ccc3F)c(C(=O)O)c(=O)c2c1
Reply: ≥ 120 °C

* * *

target: TNF (Homo sapiens, UniProt P01375); assay: TNF-neutralization bioassay: TNF-induced cell death of LM cells (MTT); type: cell-based; conditions: compound 50 μM, TNF 20 ng/ml, actinomycin D, LM cells, 24 hours
test.readout: inhibition at 50 µM (%)
Write the number in % without appending the unit.

Here's what some known entries look like.
COc1ccc2c(=O)c(C(=O)O)c(-c3cccc(C)c3)oc2c1 [Example 6] | 46
O=C(O)c1c(-c2ccccc2Cl)oc2ccccc2c1=O [Example 11] | 60.6
Cc1ccc2oc(-c3ccco3)c(C(=O)O)c(=O)c2c1 [Example 22] | 50.4
O=C(O)c1c(-c2cc(F)ccc2F)oc2ccc(Br)cc2c1=O [Example 63] | 100
Cc1ccc2c(=O)c(C(=O)O)c(-c3ccco3)oc2c1 [Example 21] | 55.2

Ask: Please list inhibition at 50 µM recorded for the molecule O=C(O)c1c(-c2ccco2)oc2ccccc2c1=O [Example 18]
Reply: 48.6

Ask: Please list inhibition at 50 µM recorded for the molecule O=C(O)c1c(-c2cccs2)oc2cc(Cl)ccc2c1=O [Example 34]
Reply: 21.7

Ask: Please list inhibition at 50 µM recorded for the molecule Cc1ccc2oc(-c3ccc(F)c(F)c3)c(C(=O)O)c(=O)c2c1 [Example 66]
Reply: 37

* * *

The reader will find reported melting point values listed item by item below.

Here's what some known entries look like.
O=C(O)c1c(-c2ccc(Cl)cc2)oc2ccc(Br)cc2c1=O [Example 72] | 211 to 213 °C
COc1ccc2oc(-c3cccs3)c(C(=O)O)c(=O)c2c1 [Example 14] | 172 to 174 °C

Ask: Please list melting point recorded for the compound Cc1cccc2c(=O)c(C(=O)O)c(-c3cccc(F)c3)oc12 [Example 41]
Reply: 227 to 229 °C

Ask: Please list melting point recorded for the compound COc1ccc2c(=O)c(C(=O)O)c(-c3cccc(C)c3)oc2c1 [Example 6]
Reply: 183 to 184 °C

Ask: Please list melting point recorded for the compound O=C(O)c1c(-c2cc(F)ccc2F)oc2ccc(Br)cc2c1=O [Example 63]
Reply: 152 to 153 °C

Ask: Please list melting point recorded for the compound Cc1cccc2c(=O)c(C(=O)O)c(-c3ccco3)oc12 [Example 20]
Reply: 227 to 228 °C

Ask: Please list melting point recorded for the compound COc1ccc2oc(-c3cccc(C)c3)c(C(=O)O)c(=O)c2c1 [Example 7]
Reply: 198 to 199 °C

Ask: Please list melting point recorded for the compound Cc1ccc2oc(-c3cccc(F)c3F)c(C(=O)O)c(=O)c2c1 [Example 54]
Reply: 120 to 122 °C

Ask: Please list melting point recorded for the compound O=C(O)c1c(-c2cc(F)ccc2F)oc2ccc(Cl)cc2c1=O [Example 62]
Reply: 168 to 170 °C

Ask: Please list melting point recorded for the compound O=C(O)c1c(-c2cccc(F)c2F)oc2cc(Cl)ccc2c1=O [Example 55]
Reply: ≥ 220 °C

Ask: Please list melting point recorded for the compound Cc1ccc2c(=O)c(C(=O)O)c(-c3cccc(F)c3)oc2c1 [Example 42]
Reply: 178 to 181 °C

* * *

test.readout: melting point

Cc1ccc2oc(-c3ccco3)c(C(=O)O)c(=O)c2c1 | 195 to 197 °C
O=C(O)c1c(-c2ccccc2Cl)oc2ccccc2c1=O | 133 to 135 °C
COc1ccc2c(=O)c(C(=O)O)c(-c3cccc(F)c3)oc2c1 | 214 to 215 °C

Next, consider the following molecule.
Ask: Please list melting point recorded for the molecule Cc1ccc2oc(-c3ccc(Cl)cc3)c(C(=O)O)c(=O)c2c1
Reply: 212 to 227 °C
